Molecular target: human LPA1 (Homo sapiens)
Construct: expressed in transfected cells; host or cells: CHO-K1
Experiment: In vitro LPA1 calcium flux antagonist assay - Bioduro protocol
Assay type: cell-based
Settings: CHO-K1 cells overexpressing human LPA1 and G15a; LPA challenge at EC80; calcium mobilization on FLIPR Tetra; read-out: IC50
ENDPOINT NAME: pIC50
Answers are plain numbers, as −log10 of the molar value.

// worked examples, pIC50 included
>  <MOLECULE>
COC(=O)NC1CCC(Nc2ccc(-c3cc(OC)c(C)c(OC)c3)c(COC3CCCC3)c2)(C(=O)O)CC1 (stereo not shown)

>  <TARGET UNDER TEST>
human LPA1 (Homo sapiens)

>  <TEST VALUE>
7.25

$$$$
>  <MOLECULE>
COc1cc(-c2c(C)cc(NC3(C(=O)O)CCOCC3)cc2CCC2CCOC2)cc(OC)c1C (stereo not shown) [Compound 309]

>  <TARGET UNDER TEST>
human LPA1 (Homo sapiens)

>  <TEST VALUE>
7.42

$$$$
>  <MOLECULE>
COc1cc(-c2ccc(NC3(C(=O)O)CCN(C(C)=O)CC3)cc2COC2Cc3ccccc3C2)cc(OC)c1C

>  <TARGET UNDER TEST>
human LPA1 (Homo sapiens)

>  <TEST VALUE>
7.08

$$$$
>  <MOLECULE>
CCOc1cccc(-c2ccc(NC3(C(=O)O)CCOCC3)cc2CCC2CCCC2)c1F

>  <TARGET UNDER TEST>
human LPA1 (Homo sapiens)

>  <TEST VALUE>
8.16

$$$$
>  <MOLECULE>
CCOc1cncc(-c2ccc(NC3(C(=O)O)CCCC3)cc2COC2CC2)c1C

>  <TARGET UNDER TEST>
human LPA1 (Homo sapiens)

>  <TEST VALUE>
7.45

$$$$

Answer for every listed entry: what is its pIC50? The entries follow.
1. CCOc1c(C)ncc(-c2ccc(NC3(C(=O)O)CC(F)(F)C3)cc2COC2CC2)c1C
2. COc1cc(-c2ccc(NC3(C(=O)O)CCN(C)CC3)cc2COC2CCCC2)cc(OC)c1C

1. 6.95
2. 6.76

Answer for every listed entry: what is its pIC50? The entries follow.
1. COc1cc(OC2CC2)c(F)c(-c2ccc(NC3(C(=O)O)CCC(F)(F)CC3)cc2COC2CC2)c1
2. O=C(O)C1(Nc2ccc(-c3cccc(OC4CC4)c3C(F)F)c(COC3CC3)c2)CC1
3. COc1cc(OC)cc(-c2ccc(NC3(C(=O)O)CCOCC3)cc2COC2CCCC2)c1

1. 8.14
2. 7.22
3. 7.11

====

Target: human LPA1 (Homo sapiens, UniProt Q92633)
Construct: expressed in transfected cells; host or cells: CHO-K1
Sequence (Q92633 whole entry): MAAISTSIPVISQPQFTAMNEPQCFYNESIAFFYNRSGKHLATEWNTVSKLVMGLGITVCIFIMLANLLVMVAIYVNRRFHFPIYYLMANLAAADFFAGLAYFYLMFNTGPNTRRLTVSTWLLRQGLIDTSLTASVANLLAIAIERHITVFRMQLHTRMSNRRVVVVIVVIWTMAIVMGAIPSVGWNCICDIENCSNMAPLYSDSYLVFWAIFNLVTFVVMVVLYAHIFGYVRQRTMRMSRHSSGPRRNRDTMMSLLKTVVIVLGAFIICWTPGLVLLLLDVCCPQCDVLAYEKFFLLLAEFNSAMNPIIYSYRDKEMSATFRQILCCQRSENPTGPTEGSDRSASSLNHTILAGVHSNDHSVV
Experiment: In vitro LPA1 calcium flux antagonist assay - Bioduro protocol
Format: cell-based
Settings: Table B3; CHO-K1 cells overexpressing human LPA1 and G15a, LPA challenge at EC80; read-out: Activity (IC50 class)
ENDPOINT NAME: IC50

// worked examples, IC50 included
>  <TEST SMILES>
COc1cc(-c2ccc(NC3(C(=O)O)CCOCC3)cc2COC2CC2)c(C)c(OC)c1C

>  <TARGET UNDER TEST>
human LPA1 (Homo sapiens, UniProt Q92633)

>  <IC50>
< 0.1 µM

$$$$
>  <TEST SMILES>
CCOc1cncc(-c2ccc(NC3(C(=O)O)CCCC3)cc2COC2CC2)c1C

>  <TARGET UNDER TEST>
human LPA1 (Homo sapiens, UniProt Q92633)

>  <IC50>
< 0.1 µM

$$$$

Answer for every listed entry: what is its IC50? The entries follow.
1. COc1cc(-c2ccc(NC3(C(=O)O)CCC(F)(F)CC3)cc2COC2CC2)c(F)c(OC)c1C
2. COc1cc(-c2ccc(NC3(C(=O)O)CCOCC3)cc2COC2CCCC2)ccc1C
3. COc1cc(-c2c(COC3CCCC3)cc(NC3(C(=O)O)CCOCC3)cc2C(F)F)cc(OC)c1C
4. CCOc1cncc(-c2ccc(OC3(C(=O)O)CCOCC3)cc2COC2CC2)c1C(F)F
5. Cc1c(OC2CC2)cccc1-c1ccc(OC2(C(=O)O)CCOCC2)cc1COC1CC1
6. CCOc1cccc(-c2ccc(NC3(C(=O)O)CCOCC3)cc2COC2CCCC2)c1C

1. < 0.1 µM
2. 0.1 to 1 µM
3. < 0.1 µM
4. < 0.1 µM
5. < 0.1 µM
6. < 0.1 µM

# credit: patent US11884627B2
